B1: tRNA (parent)
chain: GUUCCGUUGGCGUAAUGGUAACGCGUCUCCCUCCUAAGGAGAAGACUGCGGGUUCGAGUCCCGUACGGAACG

# Variants of: B1
# TEST: yeast fitness relative to wild type (ratio to wild type); higher = fitter; tRNA-Arg(CCU), competitive growth, 37 C, YPD
Variants at the floor of the assay were thinned out.
Where yeast fitness equals or exceeds 0.6, the correct label is True; where it does not, the label is False.

Field: example entries. Status: answers known.
- POLYMER_SEQUENCE: "GUUCCGUUGGAGUAAUCGUAACGCGUCUCCCUCCUGAGGACAAGACUGCGGGCUCGAGUCACGUACGAAACG [C11A G17C A36G G41C U53C C61A G68A]"
  LABEL_VALUE: "False"
- POLYMER_SEQUENCE: "GUUCCGUUGGCGUAAUGGCAACGCGUCUCCCUCCUGAGGAGAAGACUGCGGGUUCGAGUCCCGUACGGAACG [U19C A36G]"
  LABEL_VALUE: "True"

Task: Assess whether reported yeast fitness for GUUCCGUUGGCGUAAUGGUCACGCGUCUCCCUCCUAAGGAGCAGCCUACGGGUUCGAGUCCCGUACGGAACG [A20C A42C A45C G48A] sits at 0.6 or higher.
Result: False

Task: Try this variant too: GUUCUGUUGGCGUAAUGGUAACGCGUCUCCCUCCUAAGGCGAAGACUGCGGGUUCGAGUCCCGUACGGAACG [C5U A40C]
Result: True

Task: Try this variant too: GUUCCGUUGGCGUAAUGGUAACGCCUCUCCCUCCUAAGGCGAAGACUGCGGGUUCGAGUCCCGUACGCAACG [G25C A40C G68C]
Result: True

Task: Try this variant too: GUUCCGUUGGCGUAAUGGUAACGCGUCUCCCUCCUAAGGAGAAUACUGCGGGUUCGAAUCCCGUACGGAACG [G44U G58A]
Result: True

Task: Try this variant too: GUUCCGUUGGCGUAAUGGUAACGCGUCUCCCUCCUAAGAAGAAGACUGCGGAUUCGAGUCCCGUACGGAACG [G39A G52A]
Result: True

Task: Try this variant too: GUUCCGUUGGCGUAAUGGUGACGCGUCCCCCUCCUAAGGAGAAGACUGCGGGUUCGAGUCCAGUACGGAACG [A20G U28C C62A]
Result: False

Task: Try this variant too: GUUCCGUUGGCGUAAUGGUAACGCGUCUCGCUCCUAAGGCGGAGACUGCGGGUUCGAGUCCCGUACGGAACG [C30G A40C A42G]
Result: False

Task: Try this variant too: GUUCCGUUGGCGUUAAGGUAACGCAUCUCCCUCCUAGGGAGAAGACUGCGGGUUCGAGUCCCGUACGGAACG [A14U U16A G25A A37G]
Result: False

Task: Try this variant too: GUUCCGUUGGCGUAAUGGUAGCGCGUGUCCCUGCUAAGGAGAAGACUGCGGGUUCGAGUCCCGUACGGAACG [A21G C27G C33G]
Result: False

Task: Try this variant too: GUUCCGUUGGCGUAAAGGUAACGCGUCUCCGUCCUAAGGAGAAGACUGCGGGUUCGAGUCCCGUCCGGAACG [U16A C31G A65C]
Result: True

Task: Try this variant too: GUUCCGUUGGCGUAAUGGUAACGCGACUCCCUCCUAAGGAGAUGACUGCGGGUUCGAGUCCCGUACGGAACG [U26A A43U]
Result: True

Task: Try this variant too: GUUCCGUUGGCGUAAUGGUGACACGUCUCCCUCCUAAAGAGAAGACUGCGGGUUCGAGUCCCGUACGGAACG [A20G G23A G38A]
Result: False

Task: Try this variant too: GUUCCGUUGGCGAAAUGGUAACGCGUCUCCCUGCUAAGGAGAAGACUGCGGGUACGAGACCCGUACAGAACG [U13A C33G U54A U59A G67A]
Result: False

Task: Try this variant too: GUUCCGUUGGCGCAAUGGUAACGCGUCUCCUUCCUAAGGAGAACACUGCGGGUUCGAGUCCCGUACGGAACG [U13C C31U G44C]
Result: True

Task: Try this variant too: GUUCCGUUGGCGUAAUGGUCACGCGUUUCCCUCCUAAGGAGAAGACUGCGGGUUCGAGUCCCGUAUCGAACG [A20C C27U C66U G67C]
Result: False
